# credit: paper PMC9005681

What Mean % was measured for each of the following?
# TARGET_OR_TEST_SYSTEM: cloned human or rodent CNS receptors, channels, and transporters (PDSP panel) (Homo sapiens, UniProt P47898)
# Construct: expressed in transfected cells
# Sequence (P47898 whole entry): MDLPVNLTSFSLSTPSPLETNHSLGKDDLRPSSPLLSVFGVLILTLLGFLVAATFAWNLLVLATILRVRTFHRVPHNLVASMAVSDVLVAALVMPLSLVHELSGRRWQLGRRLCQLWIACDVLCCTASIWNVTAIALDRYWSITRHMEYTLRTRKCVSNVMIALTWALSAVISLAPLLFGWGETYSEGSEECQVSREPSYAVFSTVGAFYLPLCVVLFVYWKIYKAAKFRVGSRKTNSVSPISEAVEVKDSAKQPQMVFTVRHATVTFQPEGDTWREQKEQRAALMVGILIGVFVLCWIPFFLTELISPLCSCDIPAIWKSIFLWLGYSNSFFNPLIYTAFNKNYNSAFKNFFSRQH
# PROTOCOL_SUMMARY: PDSP GPCR panel primary binding assays at 10 μM
# STUDY_CONDITIONS: Receptor 5-HT5A; primary assay, 10 μM; mean of Inhibition 1-4
Provide only the numeric value, understood in %.

Req: Identify the reported Mean % for the following entry. c1cn2cc(-c3ccc4cn[nH]c4c3)nc(Nc3ccc(N4CCOCC4)cc3)c2n1 [UNC10302678A, Entospletinib (GS-9973)]
Resp: -11.53

Req: Entry Cl.NC(=O)c1cnc(N[C@@H]2CCCC[C@@H]2N)nc1Nc1cccc(-n2nccn2)c1 [UNC10302682A, P505-15 (PRT06207 HCl)] needs its Mean % filled in; supply it.
Resp: -0.25

Req: Give the reported value of Mean % for this record: CCCCNc1ncc2c(-c3ccc(CN4CCN(C)CC4)cc3)cn([C@H]3CC[C@H](O)CC3)c2n1 [UNC2025C, UNC2025]
Resp: 19.65

Req: Please report Mean % for the following compound: O=c1oc2ccccc2cc1-c1cn2cc(Cc3ccc(F)cc3)sc2n1 [UNC10302680A, iMDK]
Resp: -9.95

====

# Tested on: cloned human or rodent CNS receptors, channels, and transporters (PDSP panel)
# PROTOCOL_SUMMARY: PDSP GPCR panel primary binding assays at 10 μM
# STUDY_CONDITIONS: Receptor Alpha1A; primary assay, 10 μM
# Protocol: GPCR panel: Screening against the receptors within the PDSP panel offers an assessment of off-target pharmacological activity at cloned human or rodent CNS receptors, channels, and transporters that could confound CNS-related phenotypes. A total of 46–47 primary binding assays were run in quadruplicate on these compounds at 10 μM, with follow-up secondary binding assays in 11-point dose-response in triplicate for select compounds versus select receptors. […]
PARAMETER: Inhibition 2
Write your answer as a measured quantity: the number, then the unit.

Req: For the compound O=c1oc2ccccc2cc1-c1cn2cc(Cc3ccc(F)cc3)sc2n1 [UNC10302680A, iMDK] , give its measured Inhibition 2 value.
Resp: -1.59%

Req: Please list Inhibition 2 recorded for the compound c1cn2cc(-c3ccc4cn[nH]c4c3)nc(Nc3ccc(N4CCOCC4)cc3)c2n1 [UNC10302678A, Entospletinib (GS-9973)]
Resp: -39.37%

Req: Give the reported value of Inhibition 2 for this record: Cl.NC(=O)c1cnc(N[C@@H]2CCCC[C@@H]2N)nc1Nc1cccc(-n2nccn2)c1 [UNC10302682A, P505-15 (PRT06207 HCl)]
Resp: 19.17%

Req: Please give the documented Inhibition 2 of CCCCNc1ncc2c(-c3ccc(CN4CCN(C)CC4)cc3)cn([C@H]3CC[C@H](O)CC3)c2n1 [UNC2025C, UNC2025]
Resp: 34.14%

====

# TARGET_OR_TEST_SYSTEM: cloned human or rodent CNS receptors, channels, and transporters (PDSP panel) (Homo sapiens)
# Construct: expressed in transfected cells
# PROTOCOL_SUMMARY: PDSP GPCR panel primary binding assays at 10 μM
# STUDY_CONDITIONS: D3; primary assay, mean inhibition
Task for the reader: assign each of the following compounds its reported Mean %.
The answer is to be given in %; state only the numeric part.

Req: Provide only the value of recorded Mean % for CC(=O)N1CCC(NC(=O)NC23CC4CC(CC(C4)C2)C3)CC1 [UNC10302683A, AR9281]
Resp: -9.76

Req: Return Mean % for the following compound: CNc1nc(C)nc(N[C@H]2CCC[C@@H](C(=O)NCc3ccc(C#N)cc3C(F)(F)F)C2)n1 [UNC10302679A, GSK2256294A]
Resp: -12.51

Req: Item O=C(NC1CC1)C(=O)C(Cc1ccccc1)NC(=O)[C@H]1CCC(=O)N1Cc1ccccc1 (some centres unmarked) [UNC10302676A, ABT-957 (Alicapistat)] : provide Mean %
Resp: 10.85

Req: Annotate the compound CCC(=O)N1CCC(NC(=O)Nc2ccc(OC(F)(F)F)cc2)CC1 [UNC10302681A, TPPU] with its measured Mean %.
Resp: -4.85

Req: Specify measured Mean % for O=c1oc2ccccc2cc1-c1cn2cc(Cc3ccc(F)cc3)sc2n1 [UNC10302680A, iMDK] .
Resp: -15.93

====

# TARGET_OR_TEST_SYSTEM: cloned human or rodent CNS receptors, channels, and transporters (PDSP panel) (Homo sapiens, UniProt P08173)
# Construct: expressed in transfected cells
# Sequence (P08173 whole entry): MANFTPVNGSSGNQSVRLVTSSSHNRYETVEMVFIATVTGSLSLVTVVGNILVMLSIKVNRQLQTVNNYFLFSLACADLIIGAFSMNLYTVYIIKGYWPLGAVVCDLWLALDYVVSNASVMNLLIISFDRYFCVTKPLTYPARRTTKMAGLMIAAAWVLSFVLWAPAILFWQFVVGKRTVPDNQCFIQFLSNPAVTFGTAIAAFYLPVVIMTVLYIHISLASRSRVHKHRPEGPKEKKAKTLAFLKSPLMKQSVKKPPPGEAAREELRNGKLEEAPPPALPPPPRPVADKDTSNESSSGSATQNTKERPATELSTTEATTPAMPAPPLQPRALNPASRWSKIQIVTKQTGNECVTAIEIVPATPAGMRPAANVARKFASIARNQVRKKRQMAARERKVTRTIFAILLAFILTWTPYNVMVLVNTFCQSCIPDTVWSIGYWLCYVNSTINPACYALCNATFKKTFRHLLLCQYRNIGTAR
# PROTOCOL_SUMMARY: PDSP GPCR panel primary binding assays at 10 μM
# STUDY_CONDITIONS: Receptor M4; primary assay, 10 μM
PARAMETER: Inhibition 3 (%)
Value expressed in %; do not type the unit.

Req: // Input: O=c1oc2ccccc2cc1-c1cn2cc(Cc3ccc(F)cc3)sc2n1 [UNC10302680A, iMDK] . Output its Inhibition 3 only.
Resp: 25.61

Req: Dear colleague, please send me the reported Inhibition 3 for Cl.NC(=O)c1cnc(N[C@@H]2CCCC[C@@H]2N)nc1Nc1cccc(-n2nccn2)c1 [UNC10302682A, P505-15 (PRT06207 HCl)] when you can.
Resp: 21.48

Req: For the compound c1cn2cc(-c3ccc4cn[nH]c4c3)nc(Nc3ccc(N4CCOCC4)cc3)c2n1 [UNC10302678A, Entospletinib (GS-9973)] , give its measured Inhibition 3 value.
Resp: 6.09

Req: Give reported Inhibition 3 value for CCCCNc1ncc2c(-c3ccc(CN4CCN(C)CC4)cc3)cn([C@H]3CC[C@H](O)CC3)c2n1 [UNC2025C, UNC2025]
Resp: -16.19

====

# System: cloned human or rodent CNS receptors, channels, and transporters (PDSP panel)
# PROTOCOL_SUMMARY: PDSP GPCR panel primary binding assays at 10 μM
# STUDY_CONDITIONS: Receptor Sigma 1; primary assay, 10 μM
Field: Inhibition 3. Provide a value for each of the compounds that follow.
Lab book: enter the figure in %, no units written.

Req: Quote Inhibition 3 reported for Cl.NC(=O)c1cnc(N[C@@H]2CCCC[C@@H]2N)nc1Nc1cccc(-n2nccn2)c1 [UNC10302682A, P505-15 (PRT06207 HCl)] please.
Resp: 14.82

Req: Input CCCCNc1ncc2c(-c3ccc(CN4CCN(C)CC4)cc3)cn([C@H]3CC[C@H](O)CC3)c2n1 [UNC2025C, UNC2025] , output reported Inhibition 3.
Resp: 35.63

Req: Give the measured Inhibition 3 for O=c1oc2ccccc2cc1-c1cn2cc(Cc3ccc(F)cc3)sc2n1 [UNC10302680A, iMDK]
Resp: 1.64

Req: Using known records, supply Inhibition 3 for c1cn2cc(-c3ccc4cn[nH]c4c3)nc(Nc3ccc(N4CCOCC4)cc3)c2n1 [UNC10302678A, Entospletinib (GS-9973)]
Resp: 8.82

====

Can you tell me Inhibition 2 for the items I'm about to list?
# TARGET_OR_TEST_SYSTEM: cloned human or rodent CNS receptors, channels, and transporters (PDSP panel) (Homo sapiens)
# Construct: expressed in transfected cells
# PROTOCOL_SUMMARY: PDSP GPCR panel primary binding assays at 10 μM
# STUDY_CONDITIONS: Receptor 5-HT1B; primary assay, 10 μM
# Procedure: GPCR panel: Screening against the receptors within the PDSP panel offers an assessment of off-target pharmacological activity at cloned human or rodent CNS receptors, channels, and transporters that could confound CNS-related phenotypes. A total of 46–47 primary binding assays were run in quadruplicate on these compounds at 10 μM, with follow-up secondary binding assays in 11-point dose-response in triplicate for select compounds versus select receptors. […]
Just the number please, in %, no unit attached.

Req: Consider the compound O=c1oc2ccccc2cc1-c1cn2cc(Cc3ccc(F)cc3)sc2n1 [UNC10302680A, iMDK] . State its measured Inhibition 2.
Resp: -13.17

Req: Identify Inhibition 2 associated with the compound Cl.NC(=O)c1cnc(N[C@@H]2CCCC[C@@H]2N)nc1Nc1cccc(-n2nccn2)c1 [UNC10302682A, P505-15 (PRT06207 HCl)]
Resp: 22.41

Req: For the compound c1cn2cc(-c3ccc4cn[nH]c4c3)nc(Nc3ccc(N4CCOCC4)cc3)c2n1 [UNC10302678A, Entospletinib (GS-9973)] , report Inhibition 2.
Resp: -6.09

Req: Recall and state the measured Inhibition 2 for CCCCNc1ncc2c(-c3ccc(CN4CCN(C)CC4)cc3)cn([C@H]3CC[C@H](O)CC3)c2n1 [UNC2025C, UNC2025] .
Resp: 11.01

====

# TARGET_OR_TEST_SYSTEM: cloned human or rodent CNS receptors, channels, and transporters (PDSP panel) (Homo sapiens, UniProt P28221)
# Construct: expressed in transfected cells
# Sequence (P28221 whole entry): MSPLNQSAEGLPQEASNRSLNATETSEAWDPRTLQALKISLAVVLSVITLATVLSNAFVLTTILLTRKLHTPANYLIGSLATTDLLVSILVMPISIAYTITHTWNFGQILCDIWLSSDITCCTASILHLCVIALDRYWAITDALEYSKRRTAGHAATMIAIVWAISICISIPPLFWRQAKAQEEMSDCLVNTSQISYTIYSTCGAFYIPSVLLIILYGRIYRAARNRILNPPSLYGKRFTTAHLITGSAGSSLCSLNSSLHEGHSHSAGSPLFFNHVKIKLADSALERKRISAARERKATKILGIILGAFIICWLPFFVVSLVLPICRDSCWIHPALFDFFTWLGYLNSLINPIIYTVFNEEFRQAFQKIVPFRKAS
# PROTOCOL_SUMMARY: PDSP GPCR panel primary binding assays at 10 μM
# STUDY_CONDITIONS: 5-HT1D; primary assay, replicate 2
Give Inhibition 2 for every item shown.
Provide a numeric answer, followed by its unit.

Req: Tell me its Inhibition 2 given CCC(=O)N1CCC(NC(=O)Nc2ccc(OC(F)(F)F)cc2)CC1 [UNC10302681A, TPPU] as the entry.
Resp: -3.44%

Req: Fill in reported Inhibition 2 for this entry: CC(=O)N1CCC(NC(=O)NC23CC4CC(CC(C4)C2)C3)CC1 [UNC10302683A, AR9281]
Resp: 3.64%

Req: For the compound CNc1nc(C)nc(N[C@H]2CCC[C@@H](C(=O)NCc3ccc(C#N)cc3C(F)(F)F)C2)n1 [UNC10302679A, GSK2256294A] , give its reported Inhibition 2.
Resp: 1.56%

Req: Give Inhibition 2 for the following compound: O=C(NC1CC1)C(=O)C(Cc1ccccc1)NC(=O)[C@H]1CCC(=O)N1Cc1ccccc1 (stereo partly shown) [UNC10302676A, ABT-957 (Alicapistat)]
Resp: 16.14%
